Test: chemical genetic growth profiling, strain panel (AID 1159580);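 note: tested at 20 µM; growth read once vehicle control cultures reached saturation at 30 °C; 1 = growth at the plate median or of vehicle wells; lower values mean less growth of the strain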
Conditions: S. cerevisiae deletion strains, growth OD, locus YNL248C, strain rpa49, active compounds read low
Out of some 5,500 compounds screened, about 2,000 (36%) were called active. Another 18% or so got no clear call; they are omitted. Some of the results follow.
# normalized growth values compiled below
Answer with the value's number alone.

See these solved cases before continuing.
# compound, endpoint.label, observed
data = [
    ("CC(CCc1ccccc1)NCC(O)c1ccc(O)c(C(N)=O)c1 (stereo unspecified)", "normalized growth", 0.998),
    ("CC(=O)Oc1cccc(O)c1", "normalized growth", 1.03),
    ("CC(=O)O[C@@H]1C=C[C@@]2(C)C(C[C@@H](OC(C)=O)[C@@]3(C)C4=CC(=O)O[C@@H](c5ccoc5)[C@]4(C)CCC23)C1(C)C (stereo partly specified)", "normalized growth", 0.961),
    ("CCOC(=O)[C@H](CCc1ccccc1)N[C@@H](C)C(=O)N1CCC[C@H]1C(=O)O", "normalized growth", 1.03),
    ("COc1ccc2cc(CCC(C)=O)ccc2c1", "normalized growth", 1.02),
    ("CNCCCC12CCC(c3ccccc31)c1ccccc12", "normalized growth", 0.932),
]

Inquiry: Bench note: what normalized growth did CC(=O)O[C@H]1CCC2(C)C3=C(CCC2C1(C)C)[C@@]1(C)CC[C@@H](C(C)CCC=C(C)C)[C@]1(C)CC3 (stereo partly specified) show?
Reply text: 1.02

Inquiry: Note, next up: Cc1cn[nH]c1
Reply text: 1.02

Inquiry: // same read-out, input: CCCc1cc(=O)[nH]c(=S)[nH]1
Reply text: 1.03

====

Test: chemical genetic growth profiling, strain panel (AID 1159580);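 note: tested at 20 µM; growth read once vehicle control cultures reached saturation at 30 °C; 1 = growth at the plate median or of vehicle wells; lower values mean less growth of the strain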
Settings: S. cerevisiae deletion strains, growth OD, locus YDR297W, strain sur2, active compounds read low
Screen size: about 5,500 compounds; about 2,000 (36%) were called active. Another 18% or so got no clear call; they are omitted. This is one part of the list.
Quick reference for normalized growth among some molecules
Please respond with just the number, no unit label.

# molecule, normalized growth
data = [
    ("Cc1scc2c1N(C(=O)CN1CCN(C)CC1)c1ccccc1NC2=O", 0.974),
    ("COc1ccccc1OCC(O)CO (stereo not drawn)", 1.02),
]

Inquiry: Name the reported normalized growth value associated with the molecule CC(C)CCCC(C)C1CCC2C3=CC[C@H]4C[C@@H](O)CC[C@]4(C)C3CC[C@@]21C (stereo partly drawn)
Reply text: 0.975

Inquiry: Another: Nc1ccc(S(=O)(=O)NC(=O)c2ccccc2)cc1
Reply text: 0.997

Inquiry: Another molecule to check: O=P1(NCCCl)OCCCN1CCCl (stereo not drawn)
Reply text: 0.99

Inquiry: CC1=CC(=O)c2ccccc2C1=O ?
Reply text: 0.988

Inquiry: Now consider CN(C)CCCN1c2ccccc2CCc2ccccc21 and answer again.
Reply text: 0.996

Inquiry: CC(C)CCCC(C)[C@H]1CCC2C3CC=C4CC(=O)CC[C@]4(C)C3CC[C@@]21C (stereo partly drawn) , same question.
Reply text: 0.994

Inquiry: And the next one, CC(C)c1ccc2c(c1)CCC1[C@](C)(CN)CCC[C@]21C (stereo partly drawn) ?
Reply text: 0.992

Inquiry: What about this molecule? CN(C)CCCN1c2ccccc2Sc2ccc(C(F)(F)F)cc21
Reply text: 1.02
